# Target System: T1, Human Galectin-3 protein (Acro Biosystems, GA3-H5129) (human, UniProt P17931 2-250)
# T1 construct: Bought protein; also called Gal3-ECD-His; Gal3-His; not shown: linker-spaced 6-histidine tag
# T1 sequence (P17931 2-250): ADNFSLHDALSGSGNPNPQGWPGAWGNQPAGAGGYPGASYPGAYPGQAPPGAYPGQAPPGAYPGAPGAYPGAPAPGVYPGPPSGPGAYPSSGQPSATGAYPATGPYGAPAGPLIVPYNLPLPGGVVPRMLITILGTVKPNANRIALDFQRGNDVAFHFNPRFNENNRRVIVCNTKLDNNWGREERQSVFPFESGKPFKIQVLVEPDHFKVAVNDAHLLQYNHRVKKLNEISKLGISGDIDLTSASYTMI
# Protocol Description: ELISA, blocking of INSR binding to coated Gal3
Gal3-INSR Blocking @ 3 µg/mL listing for selected binders.
Metric: Gal3-INSR Blocking @ 3 µg/mL (%)

[[record]]
binder = "IMT001 (TB001) (antibody, V domains shown, anti-Gal3 antibody; also called IMT001-4) VH: QVQLVQSGSELKKPGASVKVSCKASGYTFTNYGMNWVRQAPGQGLKWMGWINTNTGEPTYVEEFTGRFVFSLETSVSTAYLQISSLKAEDTAVYFCAPYDNFFAYWGQGTTVTVSS VL: DIVLTQSPLSLPVTPGEPASISCRSSKSLLYKDGKTYLNWFLQKPGQSPQLLIYLMSTHASGVPDRFSGSGSGTDFTLKISRVEAEDVGVYYCQQLVDYPLTFGGGTKLEIK"
unit = "%"
meas_value = 100

[[record]]
binder = "23H9.2E4 (antibody, V domains shown) VH: QIQLVQSGPELKKPGETVKISCKASGYTFTTYAMSWVKQAPGKGLKWMGWINTYSGVPTYADDLKGRFAFSLETSASTAYLQINNLKNEDTATYFCARGPYAMDYWGQGTSVTVSS VL: DIQMTQTTSSLSASLGDRVTISCSASQGINNYLNWYQQKPDGTVKLLIYYASSLHSGVPSRFSGSGSGTDYSLTISNLEPEDIATYYCQQYSQVPYTFGSGTKLEIK"
unit = "%"
meas_value = 100

[[record]]
binder = "7D8.2D8 (antibody, V domains shown) VH: EVQLVESGGGLVKPGGSLKLSCAASGFTFSSYAMSWVRQTPEKRLEWVATISDGGIYTYYPDNVKGRFTISRDNAKNNLFLQMSHLKSEDTAMYYCVRDGGYWGQGTTLTVSS VL: DVLMTQTPLSLPVSLGDQASISCRSSQSIVHSNGNTYLEWYLQKPGQSPKLLIYKVSNRFSGVPDRFSGSGSGTDFTLKISRVEAEDLGVYYCFQGSHVPLTFGAGTKLELK"
unit = "%"
meas_value = 75

[[record]]
binder = "2D10.2B2 (antibody, V domains shown) VH: QVQLQQSGPELVKPGASVKISCKASGYTFTDYYINWVKQRPGQGLEWIGWIYPGSNDTKYNEKFKGKATLTVDTSSSTAYMQLGSLTSEDSAVYFCANYFGCSGWFFDVWGTGTTVTVSS VL: DIVMTQAAFSNPVTLGTSASISCRSSKSLLHSDGITYLYWYLQRPGQSPQLLIYRMSNLASGVPDRFSGSGSGTDFTLRISRVEAEDVGVYYCAQMIEFPLTFGAGTILELK"
unit = "%"
meas_value = 100

[[record]]
binder = "20H5.A3 (antibody, V domains shown) VH: QIQLVQSGPELKKPGESVKISCKASGYAFTTYGMSWVQQAPGKGLKWMGWVNTYSGVPTCADDFKGRFAFSLETSASTAYLQINNLRNEDTATYFCARGPYAMDYWGQGTSVTVSS VL: DIQMTQTTSSLSASLGDRVTINCSASQDISNYLNWYQQKPDGTVKLLIYYTSSLLSGVPSRFSGSGSGTDYSLTISNLEPEDIATYFCQQYSKLPYTFGSGTHLEIK"
unit = "%"
meas_value = 100

[[record]]
binder = "15F10.2D6 (antibody, V domains shown) VH: EVQLVESGGGLVKPGGSLKLSCAASGFAFSSYAMSWVRQTPEKRLEWVATISDGGVYTYYTDHVKGRFTISRDNAEDNLYLQMSHLKSEDTAMYYCVRDGGYWGQGTTLTVSS VL: DVLMTQTPLSLPVSLGDQASISCRSSQSIVHNNGNTYLEWYLQKPGQSPKLLIYKVSNRFSGVPDRFSGSGSGTDFTLKISRVEAEDLGVYYCFQGSHVPLTFGGGTKLELK"
unit = "%"
meas_value = 82

[[record]]
binder = "4A11.2B5 (antibody, V domains shown) VH: QVQLQQSGPELVKPGASVKISCKASGYSFTNYYIHWVKQRPGQGLEWIGWIYPGSGNTNYNEKFKGKATLTADTSSSTTNMQLSSLTSEDSAVYYCSTAPGGFDVWGSGTTVTVSS VL: DIVMTQAAFSNPVTLGTSASISCRSSKSLLHSDGITYLYWYLQRPGQSPQLLIYRMSNLASGVPDRFSGSGSGTDFTLRISRVEAEDVGVYYCAQMLEFPLTFGAGTKLELK"
unit = "%"
meas_value = 100

[[record]]
binder = "6H6.2D6 (antibody, V domains shown) VH: QIQLVQSGPELKKPGETVKISCKASGYTFTTYGMSWVKQAPGKGLKWMAWINTYSGVPTYADDFKGRFAFSLETSASTAYLQINNLTNEDTATYFCARGPYAMDYWGQGTSVTVSS VL: DIQMTQTTSSLSASLGDRVTISCSASQGISNYLNWYQQKPDGTVKLLIYYTSSLHSGVPSRFSGSGSGTDYSLTISNLEPEDIATYYCQQYSELPYTFGSGTKLEIK"
unit = "%"
meas_value = 100

[[record]]
binder = "15G7.2A7 (antibody, V domains shown) VH: EVQLQQSGPELVKPGASVKISCKASGYTFTDYYMNWVKQSHGKSLEWIGDINPNNGGTNYNQKFKGKATLTVDKSSSTAYMELRSLTSEDSAVYYCTSGYGFPYWGQGTLVTVSA VL: DIQMNQSPSSLSASLGDTISITCRASQNINIWLSWYQQKPGNIPQLLIYKASNLHTGVPSRFSGSGSGTDFTLTISSLQPEDIATYYCLQGQSYPLTFGAGTKLVMK"
unit = "%"
meas_value = 100

[[record]]
binder = "12G5.D7 (antibody, V domains shown) VH: QVQLKQSGAELVRPGASVKLSCKASGYTFTDYYINWVKQRPGQGLEWIARIYPGTGNTDYNEKFKGRATLTAEKSSSTAYMQLSSLTSEDSAVYFCARFAYYYGSGGYFDYWGHGTTLTVSS VL: DILMTQSPSSMSVSLGDTVSITCHASQGINSNMGWLQQKPGKSFKGLIYHATNLEDGVPSRFSGSGSGADYSLTISSLESEDFADYYCVQYAQFPPTFGSGTKLEIK"
unit = "%"
meas_value = 27

